# credit: the supplement of paper PMC10567573

B1: TIA1 (parent)
chain: TYECRCIGEEKEMWNFGEKYARF

# Variants of: B1
# test summary: protein stability index of a GFP-peptide fusion (GPS, HEK-293T) (PSI 1-6); higher = more stable;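 also: lentivirally expressed fusions sorted by FACS into six bins by GFP to DsRed ratio, PSI derived from sequencing read proportions per bin multiplied by bin number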
# experimental context: c terminus: native
measured quantity: protein stability index
Could you keep your reply to the number by itself?

Take a look at these entries with their results.
[
  {
    "variant notation": "K19Q",
    "protein stability index": 2.41
  },
  {
    "variant notation": "T1V",
    "protein stability index": 1.8
  },
  {
    "variant notation": "Y2L",
    "protein stability index": 3.66
  }
]

[ask] For C6H , write its protein stability index.
[reply] 3.75

[ask] For W14C , write its protein stability index.
[reply] 2.17

[ask] For T1M , write its protein stability index.
[reply] 3.02

[ask] For F23C , write its protein stability index.
[reply] 1.61

[ask] For R5D , write its protein stability index.
[reply] 3.07

[ask] For M13A , write its protein stability index.
[reply] 1.74

[ask] For Y20S , write its protein stability index.
[reply] 3.24

[ask] For R22Q , write its protein stability index.
[reply] 2.92

[ask] For Y2V , write its protein stability index.
[reply] 3.16
